System: SK-OV-3 ovarian
Test: NCI tumour cell line growth inhibition, 48 h
Quick reference for TGI among some compounds

Find the recorded TGI belonging to CC(=O)OC1COC(N2C(=O)C(=O)c3cc(Br)ccc32)C(OC(C)=O)C1OC(C)=O (stereo not drawn) and report it.
> 100 µM

// repeat for `COC(=O)C1=C(C(=O)OC)SC2(S1)C(C(=O)OC)=C(C(=O)OC)Sc1c2ssc1=Nc1ccc(Cl)cc1` and report
4.29 µM

// repeat for `O=C1c2cccc(NCCN=Cc3ccccc3O)c2C(=O)c2c(NCCN=Cc3ccccc3O)cccc21` and report
4.99 µM

// repeat for `O=C1c2cc([N+](=O)[O-])ccc2-c2ccc3c4ccc5c6c(ccc(c7ccc1c2c73)c64)C(=O)c1cc([N+](=O)[O-])ccc1-5` and report
> 100 µM

// repeat for `COC(=O)[C@H](CC(C)C)Nc1c(O)c2c(c(O)c1Cl)C(=O)C=CC2=O` and report
> 10 µM

// repeat for `Cc1cc(C(C)(C)C)cc(CNC2CCCCC2)c1O` and report
41.9 µM

// repeat for c1ccc2c(c1)NC1(N3CCCCC3)CCCCC21 (stereo not drawn) and report
> 100 µM

---

Tested on: NCI-H23 lung
Experiment: NCI tumour cell line growth inhibition, 48 h
quantity-name: TGI

Before answering, review these 5 worked examples.
- molecule: "c1ccc2c(c1)CCc1[nH]c3c(c1-2)-c1ccccc1CC3"
  TGI: "> 100 µM"
- molecule: "CN1CCN(C)C12C=CC=CC21CC1"
  TGI: "> 100 µM"
- molecule: "O=C(CNC(c1ccccc1)(c1ccccc1)c1ccccc1)NC1CCCCC1NC(=O)CNC(c1ccccc1)(c1ccccc1)c1ccccc1 (stereo unspecified)"
  TGI: "> 100 µM"
- molecule: "COc1cc(C2C(Cl)C(=O)N2NC(=O)c2ccc(N)cc2)cc(Br)c1O (stereo unspecified)"
  TGI: "35.1 µM"
- molecule: "COc1cc([N+](=O)[O-])c(OC)cc1-c1nc2sc(Cl)cn2c1/C=N/NC1=NCCN1"
  TGI: "2.42 µM"

Find the recorded TGI belonging to `O=c1c2cc(Cl)cc(Cl)c2oc2nc3n(c(=O)c12)CCCS3` and report it.
> 100 µM

// repeat for O=S(=O)(/N=c1/scc(-c2ccccc2)n1-c1ccccc1)c1ccc(N2N=C3c4ccccc4CC3C2c2cccs2)cc1 (stereo unspecified) and report
> 100 µM

// repeat for `O=C(CCCl)NNC1=NCCCN1` and report
> 100 µM

// repeat for `Cc1cc(N(CCCl)CCCl)ccc1C=Nc1ccc2ccccc2c1` and report
> 100 µM

// repeat for `COc1cc2c(cc1OC)C(=O)/C(=C/c1cc(OC)c(OC)c(OC)c1)C2` and report
> 100 µM

// repeat for `COc1cc(/C=C2\C[C@H]3[C@@H]4CC=C5C[C@@H](O)CC[C@]5(C)[C@H]4CC[C@]3(C)[C@H]2O)ccc1OCCCn1ccnc1` and report
40.8 µM

// repeat for `Brc1ccc2c(c1)-c1nc3nc4c(cc3cc1CC2)CCc1ccc(Br)cc1-4` and report
> 100 µM

// repeat for `COc1cc(/C=C/C(=O)N2CCN(C(=O)c3cc(OC)c(OC)c(OC)c3)CC2)ccc1OCCCOc1cc2c(cc1OC)C(=O)N1CCC[C@H]1C=N2` and report
0.974 µM

// repeat for CC(=O)C1=C(C)N(c2ccc(C)cc2)C2(O)C3=C(C(=O)c4ccccc4C3=O)C(O)=CC12Cl (stereo unspecified) and report
34 µM

// repeat for COc1ccc(C2C=C(c3ccc4c(c3)OCO4)Oc3c2c(=O)oc2ccccc32)cc1OC (stereo unspecified) and report
> 46.2 µM

// repeat for `COc1cc([C@@H]2C[C@H]2c2cc(SC)n[nH]2)cc(OC)c1OC` and report
58 µM

// repeat for `CC(C)(C)c1cc2c(O)c(c1)Cc1cc(C(C)(C)C)cc(c1O)Cc1cc(C(C)(C)C)cc(c1O)Cc1cc(C(C)(C)C)cc(c1O)Cc1cc(C(C)(C)C)cc(c1O)Cc1cc(C(C)(C)C)cc(c1O)Cc1cc(C(C)(C)C)cc(c1O)Cc1cc(C(C)(C)C)cc(c1O)C2` and report
> 50 µM

// repeat for `CCOC(=O)c1[nH]cc(C)c1-c1ccc2c(-c3ccccc3)nc3ccccc3n12` and report
23.3 µM

// repeat for `O=c1ssc(Cl)c1Cl` and report
> 10 µM

// repeat for `COc1ccc(C(=O)C(c2ccc(OCc3ccccc3)cc2)c2ccc(OCc3ccccc3)cc2)cc1` and report
> 100 µM

// repeat for CCCCCC/C=C1\CCC(CN2CCOCC2)C1=O (stereo unspecified) and report
31.7 µM

// repeat for Cc1ccc(S(=O)OCC23CC4CC(CC(C4)C2)C3)cc1 (stereo unspecified) and report
> 100 µM

// repeat for c1ccc2c(c1)N=C(c1cccc3ccccc13)CC(c1ccc3c(c1)OCO3)S2 (stereo unspecified) and report
> 100 µM

// repeat for Cn1c(NCC(O)CN2CCCC2)cc(=O)n(C)c1=O (stereo unspecified) and report
> 100 µM

// repeat for `O=C(Nc1ccc(/C=C/c2ccc(NC(=O)c3cc(S(=O)(=O)O)c4cccnc4c3O)cc2S(=O)(=O)O)c(S(=O)(=O)O)c1)c1cc(S(=O)(=O)O)c2cccnc2c1O` and report
> 42 µM
